biological target: UniProt:Q7ZJM1
Sequence (Q7ZJM1 as listed by the source): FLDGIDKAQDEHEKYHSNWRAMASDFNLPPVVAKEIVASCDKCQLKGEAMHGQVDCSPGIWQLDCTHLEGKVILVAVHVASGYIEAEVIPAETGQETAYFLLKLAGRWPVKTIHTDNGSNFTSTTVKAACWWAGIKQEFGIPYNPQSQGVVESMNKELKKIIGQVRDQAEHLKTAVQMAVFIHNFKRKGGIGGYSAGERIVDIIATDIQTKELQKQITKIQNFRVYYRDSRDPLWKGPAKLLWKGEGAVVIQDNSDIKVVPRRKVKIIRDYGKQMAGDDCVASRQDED
Record T whenever C50 is at 0.1 µM or higher; record F when lower.

Asked: Could you tell me if the measured C50 of CCOC(=O)/C(O)=C/C(=O)c1cn(Cc2ccc(F)cc2)c2ccc(OC)c(OC)c12 reaches 0.1 µM or more?
Given back: F

Asked: Could you tell me if the measured C50 of COc1cc(OC)c2c(c1)c(C(=O)/C=C(\O)C(=O)O)cn2Cc1ccc(F)cc1 reaches 0.1 µM or more?
Given back: F

Asked: Could you tell me if the measured C50 of COc1cc(OC)c2c(C(=O)/C=C(\O)C(=O)O)cn(Cc3ccc(F)cc3)c2c1 reaches 0.1 µM or more?
Given back: T

Asked: Could you tell me if the measured C50 of COc1ccc2c(c(C(=O)/C=C(\O)C(=O)O)cn2Cc2ccc(F)cc2)c1OC reaches 0.1 µM or more?
Given back: F

Asked: Could you tell me if the measured C50 of CCOC(=O)/C(O)=C/C(=O)c1cn(Cc2ccc(F)cc2)c2c(OC)c(OC)ccc12 reaches 0.1 µM or more?
Given back: T

Asked: Could you tell me if the measured C50 of COc1cc2c(C(=O)/C=C(\O)C(=O)O)cn(Cc3ccc(F)cc3)c2cc1OC reaches 0.1 µM or more?
Given back: T

Asked: Could you tell me if the measured C50 of CCOC(=O)/C(O)=C/C(=O)c1cn(Cc2ccc(F)cc2)c2c(OC)cc(OC)cc12 reaches 0.1 µM or more?
Given back: T

Asked: Could you tell me if the measured C50 of CCOC(=O)/C(O)=C/C(=O)c1cn(Cc2ccc(F)cc2)c2c(OC)ccc(OC)c12 reaches 0.1 µM or more?
Given back: T

Asked: Could you tell me if the measured C50 of CCOC(=O)/C(O)=C/C(=O)c1cn(Cc2ccc(F)cc2)c2cc(OC)cc(OC)c12 reaches 0.1 µM or more?
Given back: T

---

biological target: Human immunodeficiency virus type 1 integrase (Human immunodeficiency virus 1)
Recorded Metric: C50 (µM)
# output: bare number, implied unit µM

Asked: Return reported C50 for target or system Human immunodeficiency virus type 1 integrase (Human immunodeficiency virus 1), item CCOC(=O)/C(O)=C/C(=O)c1cn(Cc2ccc(F)cc2)c2cc(OC)c(OC)cc12 .
Given back: 7.69

Asked: Return reported C50 for target or system Human immunodeficiency virus type 1 integrase (Human immunodeficiency virus 1), item COc1cccc2c1c(C(=O)/C=C(\O)C(=O)O)cn2Cc1ccc(F)cc1 .
Given back: 0.14

Asked: Return reported C50 for target or system Human immunodeficiency virus type 1 integrase (Human immunodeficiency virus 1), item COc1ccc2c(C(=O)/C=C(\O)C(=O)O)cn(Cc3ccc(F)cc3)c2c1OC .
Given back: 6.37
